Where a name gives a salt, the structure may show the parent alone.
These records show Ki for purified CK2α enzyme (Homo sapiens, UniProt P68400).

- Compound: "CN(CCN)c1ccc(Nc2nc(NC3CC3)n3ncc(C#N)c3n2)cc1CS(C)(=O)=O [Example 52, mono trifluoroacetic acid salt]"
  Ki: "2.5 to 10 nM"
- Compound: "CC(N)c1ccc(Nc2cc(NC3CC3)n3ncc(C#N)c3n2)cc1C[S+](C)[O-] (racemic) [Example 58, mono trifluoroacetic acid salt]"
  Ki: "2.5 to 10 nM"
- Compound: "C[S+]([O-])Cc1cc(Nc2cc(NC3CC3)n3ncc(C#N)c3n2)ccc1N1CC(O)C1 (racemic)"
  Ki: "< 2.5 nM"
- Compound: "CC(CCN)c1ccc(Nc2cc(NC3CC3)n3ncc(C#N)c3n2)cc1C[S+](C)[O-] (racemic) [Example 64, mono trifluoroacetic acid salt]"
  Ki: "2.5 to 10 nM"
- Compound: "C[S+]([O-])Cc1cc(Nc2cc(NC3CC3)n3ncc(C#N)c3n2)ccc1N1CC[C@H](N)C1 (stereo partly drawn) [Example 23, mono trifluoroacetic acid salt]"
  Ki: "< 2.5 nM"

// below: Ki requested for another compound
Prompt: API: value(readout=Ki, system=purified CK2α enzyme (Homo sapiens, UniProt P68400)) for record CN(CCN)c1ccc(Nc2nc(NC3CC3)c3ncc(C#N)n3n2)cc1CS(C)(=O)=O [Example 50, mono trifluoroacetic acid salt]
Response: 2.5 to 10 nM
